B1: Histone H1t, residues 44 to 112; numbered along this chain, P22492 (parent)
chain: VSKLITEALSVSQERVGMSLVALKKALAAAGYDVEKNNSRIKLSLKSLVNKGILVQTRGTGASGSFKLS

Variants of: B1
Assay: abundance fitness (aPCA) (normalised: wild type 0, dead -1); higher = more abundant; growth selection in yeast, the domain comes from the species named
Settings: Homo sapiens
Provide the recorded abundance fitness for the entries that follow.
One number for each entry.

Below, each entry is followed by its recorded abundance fitness result.
>  <polymer_sequence>
VSKLITEALSVSQERVGMSLVALKKALAAAGYDVEKNNSRIKLSLKSLVNKGILVQTRGTGASLSFKLS [G64L]

>  <abundance fitness>
0.05

$$$$
>  <polymer_sequence>
VSKLITEALSVSQERVGMSLVALKVALAAAGYDVEKNNSRIKLSLKSLVNKGILVQTRGTGASGSFKLS [K25V]

>  <abundance fitness>
-0.627

$$$$
>  <polymer_sequence>
VSKLITEALSVSQERVGMSLVALKKALAAAGYDVEKNNSRIKLPLKSLVNKGILVQTRGTGASGSFKLS [S44P]

>  <abundance fitness>
-0.636

$$$$
>  <polymer_sequence>
VSKLITEALSVSQERVGMSLVALKKALAAAGYDVEKNNSEIKLSLKSLVNKGILVQTRGTGASGSFKLS [R40E]

>  <abundance fitness>
-0.036

$$$$
>  <polymer_sequence>
VSKLITEALSVSQERVGMSLVALKKALAAAGYDVEKNNSRIKLSLKSHVNKGILVQTRGTGASGSFKLS [L48H]

>  <abundance fitness>
-0.979

$$$$
>  <polymer_sequence>
VSKLITEALSVSQERVGMSLVALKKALAAAGYDVEKNNSRIKLSLKSLVNKGILVQTRGTGASGSFMLS [K67M]

>  <abundance fitness>
-0.066

$$$$
>  <polymer_sequence>
VSKLITEALSVSQERVGMSLVALKKALAAAGYLVEKNNSRIKLSLKSLVNKGILVQTRGTGASGSFKLS [D33L]

>  <abundance fitness>
-0.034

$$$$
>  <polymer_sequence>
VSKLITEALSVSQERVGMSLVALKKALAAAGYDVEKNNSRIKLSLKELVNKGILVQTRGTGASGSFKLS [S47E]

>  <abundance fitness>
0.232

$$$$
>  <polymer_sequence>
VSKLITEALSVSQERVGMSLVALKKALAAAGYDVEKNNSRIKLSMKSLVNKGILVQTRGTGASGSFKLS [L45M]

>  <abundance fitness>
-0.386

$$$$
>  <polymer_sequence>
VSKLITEALSVSQERVGMSLVALKKALAAAGYDVEKNNSRIKLSLKSLVNKGIMVQTRGTGASGSFKLS [L54M]

>  <abundance fitness>
0.062

$$$$

Please give abundance fitness, item by item, for the list that follows.
1. VSKLITEALSVSQERVGMSLVALKKALAAAGYDVEKNNSRIKLSLKSLVNKGILVQTRDTGASGSFKLS [G59D]
2. VSKLITEALSVSQERVGMSLVALKKALAAARYDVEKNNSRIKLSLKSLVNKGILVQTRGTGASGSFKLS [G31R]
3. VSKLITEALSVSQERVGMSLVALKKALAAAGYDVEKNNSRIKLSLKSLVNKIILVQTRGTGASGSFKLS [G52I]
4. VSKLITEALSVSQERVGMSLVALKKALAWAGYDVEKNNSRIKLSLKSLVNKGILVQTRGTGASGSFKLS [A29W]
5. VSKLITEALSVSQERVGMSLVALKKALAAAGYDVEKNNSRIMLSLKSLVNKGILVQTRGTGASGSFKLS [K42M]
6. VSKLITEALSVSQERVGMSLVALKKALAAAGYDVEKNNSRIKLMLKSLVNKGILVQTRGTGASGSFKLS [S44M]
7. VSKLITEALSVSQERVGMSLVALKKALAAAGYDVEKNNSRIKLSLKSAVNKGILVQTRGTGASGSFKLS [L48A]
8. VSKLITEALSVSQERVGMSLVALKKALAAAGYDVEKNNSRIKLSLKSFVNKGILVQTRGTGASGSFKLS [L48F]

0.025
-0.306
-0.352
-0.323
0.14
-0.047
-0.755
-0.404

Please give abundance fitness, item by item, for the list that follows.
1. VSKLITEALSVSQERVGMSLVALKKALAAAGYDVEKNVSRIKLSLKSLVNKGILVQTRGTGASGSFKLS [N38V]
2. VSKLITEALSVSQERVGMSLVALKKALAAAGYDVEKNNSRIGLSLKSLVNKGILVQTRGTGASGSFKLS [K42G]
3. VSKLITEALSVSQERVGMSLVALKKALAAAGYDVEKNNSRIKLYLKSLVNKGILVQTRGTGASGSFKLS [S44Y]
4. VSKLITEALSVSQERVGMSLVALGKALAAAGYDVEKNNSRIKLSLKSLVNKGILVQTRGTGASGSFKLS [K24G]

0.047
-0.188
-0.279
-0.485

Please give abundance fitness, item by item, for the list that follows.
1. VSKLITEALSVSQERVGMSLVALKKALAAAGYDVEKNNSRIKLSLKSLVRKGILVQTRGTGASGSFKLS [N50R]
2. VSKLITEALSVSQERVGMSLVALKKALAAAGYDVEKNNSRIKLSLKNLVNKGILVQTRGTGASGSFKLS [S47N]
3. VSKLITEALSVSQERVGMSLVALKKALAAAGYDKEKNNSRIKLSLKSLVNKGILVQTRGTGASGSFKLS [V34K]
4. VSKLITEALSVSQERVGMSLVALKKALAAAGYDVEKNNSRIKLSLKSLVNKGILVQTRGTGASGAFKLS [S65A]

[-0.082, -0.156, -0.104, 0.031]
